- measurement.target: Discoidin domain-containing receptor 2 (Homo sapiens) (UniProt Q16832);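 also: reported values are mean percent inhibition of DDR2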
- Sequence (whole entry): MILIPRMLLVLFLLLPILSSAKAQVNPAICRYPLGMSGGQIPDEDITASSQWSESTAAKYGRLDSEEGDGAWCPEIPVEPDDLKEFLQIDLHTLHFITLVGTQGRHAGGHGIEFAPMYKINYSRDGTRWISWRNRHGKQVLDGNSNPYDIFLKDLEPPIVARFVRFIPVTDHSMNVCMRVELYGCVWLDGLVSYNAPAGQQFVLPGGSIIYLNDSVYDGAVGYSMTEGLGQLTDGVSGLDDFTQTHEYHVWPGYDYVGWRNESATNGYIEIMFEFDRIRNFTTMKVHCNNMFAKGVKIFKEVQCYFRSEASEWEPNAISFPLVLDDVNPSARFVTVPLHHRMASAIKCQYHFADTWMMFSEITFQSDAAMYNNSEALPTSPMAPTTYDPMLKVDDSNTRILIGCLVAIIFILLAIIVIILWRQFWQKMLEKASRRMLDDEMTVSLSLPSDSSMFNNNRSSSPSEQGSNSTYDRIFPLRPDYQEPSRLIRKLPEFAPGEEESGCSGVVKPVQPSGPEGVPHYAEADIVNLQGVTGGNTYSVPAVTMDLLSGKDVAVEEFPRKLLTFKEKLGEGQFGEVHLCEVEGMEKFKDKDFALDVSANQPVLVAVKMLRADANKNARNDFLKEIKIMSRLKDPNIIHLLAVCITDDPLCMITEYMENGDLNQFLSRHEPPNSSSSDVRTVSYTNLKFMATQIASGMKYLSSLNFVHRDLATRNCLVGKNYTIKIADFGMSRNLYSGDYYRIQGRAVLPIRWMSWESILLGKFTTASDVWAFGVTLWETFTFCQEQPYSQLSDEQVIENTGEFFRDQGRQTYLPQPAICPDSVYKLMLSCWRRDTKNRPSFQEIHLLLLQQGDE
- measurement.context: at 0.1 µM
Can you tell me inhibition for the items I'm about to list?
Numbers only, in %.

Please review the following examples before continuing.
> print(dat)
                              line.notation                        measurement.target  observed.value
1  COc1ccc(CNC(=O)c2ccc(-c3cc(-c4nnc(C)o4)ccc3C)cc2)cc1  Discoidin domain-containing receptor 2 (Homo sapiens) (UniProt Q16832)            4.36
2  Fc1ccc(-c2cc(-c3c[nH]nc3-c3ccccn3)ccn2)cc1  Discoidin domain-containing receptor 2 (Homo sapiens) (UniProt Q16832)            1.07
3  FC(F)(F)c1cccc(-c2nn3ncccc3c2-c2ccnc(Nc3ccc4c(c3)OCCO4)n2)c1  Discoidin domain-containing receptor 2 (Homo sapiens) (UniProt Q16832)            1.27
4  NS(=O)(=O)c1ccc(N/N=C2\C(=O)Nc3ccc4ncccc4c32)cc1  Discoidin domain-containing receptor 2 (Homo sapiens) (UniProt Q16832)            0.92
5  c1ccc(COc2ccc(Nc3ncnc4ccc(-c5ccco5)cc34)cc2)cc1  Discoidin domain-containing receptor 2 (Homo sapiens) (UniProt Q16832)            0.26

Could you tell me inhibition for each of these molecules? They are listed below.
1. CNC(=O)c1cccc(C#Cc2cncnc2Nc2ccc(OCc3cccc(F)c3)c(Cl)c2)c1
2. Cc1cccc(Nc2ncc(-c3ccccc3)o2)c1
3. COc1cccc(-c2c[nH]c3c(N/N=C/c4ccncc4)ncnc23)c1
4. CCCN1CCC(c2ccc(Nc3nc(Nc4cc(F)ccc4C(N)=O)c4cc[nH]c4n3)c(OC)c2)CC1
5. O=S(=O)(CCNCc1ccc(-c2ccc3ncnc(Nc4ccc(OCc5cccc(F)c5)c(Cl)c4)c3c2)o1)c1ccccc1

1: 0.18; 2: 0.22; 3: 3.82; 4: 0.6; 5: 5.04

Each of the following entries comes with a recorded value; kindly state inhibition for each.
1. CC(=O)NCc1cccc(C#Cc2cncnc2Nc2ccc(OCc3cccc(F)c3)c(Cl)c2)c1
2. COc1cc(/C=N/Nc2ncnc3[nH]ncc23)ccc1O
3. CC(C)(CO)CNC(=O)c1ccc2c(c1)/C(=N/Nc1ccc(S(N)(=O)=O)cc1)C(=O)N2
4. CN(C)CCOc1ccc(-c2nc(-c3ccncc3)c(-c3ccc4c(c3)CC/C4=N\O)[nH]2)cc1
5. Cc1ccc2c(-c3ccnc(Nc4ccccc4)n3)c(-c3ccc(F)cc3)nn2n1
6. COC(=O)c1sc(-n2cnc3cc(OC)c(OC)cc32)cc1OCc1ccccc1C(F)(F)F
7. CCn1c(-c2nonc2N)nc2ccccc21
8. Fc1cccc(COc2ccc(Nc3ncnc4sc(-c5ccco5)cc34)cc2Cl)c1

[1.32, 1.42, -1.82, 1.41, 31.2, 2.46, 1.73, 3.86]

Hi, could you look up inhibition for each item in my list?
1. CCNC(=O)O[C@H]1CN[C@H](C#Cc2cc3ncnc(Nc4ccc(OCc5cccc(F)c5)c(Cl)c4)c3s2)C1
2. CC(=O)Nc1cccc(C#Cc2cncnc2Nc2ccc(OCc3cccc(F)c3)c(Cl)c2)c1

[2.66, 4.51]
